Protocol Details: Volume of distribution in cynomolgus monkey at 2 mg/kg, iv
Type: ADME, organism-based, Macaca fascicularis
Set-up: dose 2 mg/kg, route intravenous
Condition Set: in vivo, read-out: Vdss
Readout Name: Vd (L/kg)
Please reply with the bare figure in L/kg and do not write the unit itself.

Query string: Read the entry CCCN1CC[C@@H](Cc2ccc(F)cc2)C[C@@H]1CCCNC(=O)Nc1cccc(C(C)=O)c1 and write its reported Vd.
Result string: 3.1

###

Protocol Details: Clearance in cynomolgus monkey at 2 mg/kg, iv
Type: ADME, organism-based, Macaca fascicularis
Parameters: dose 2 mg/kg, route intravenous
Condition Set: in vivo
Readout Name: clearance (mL/min/kg)
Just the number please, in mL/min/kg, no unit attached.

Query string: Hello, please tell me recorded clearance for this one: CCCN1CC[C@@H](Cc2ccc(F)cc2)C[C@@H]1CCCNC(=O)Nc1cccc(C(C)=O)c1
Result string: 6.67

###

The entries below are paired with their reported pKi.
Assay System: Sodium-dependent serotonin transporter (Homo sapiens, UniProt P31645)
Sequence (P31645 whole entry): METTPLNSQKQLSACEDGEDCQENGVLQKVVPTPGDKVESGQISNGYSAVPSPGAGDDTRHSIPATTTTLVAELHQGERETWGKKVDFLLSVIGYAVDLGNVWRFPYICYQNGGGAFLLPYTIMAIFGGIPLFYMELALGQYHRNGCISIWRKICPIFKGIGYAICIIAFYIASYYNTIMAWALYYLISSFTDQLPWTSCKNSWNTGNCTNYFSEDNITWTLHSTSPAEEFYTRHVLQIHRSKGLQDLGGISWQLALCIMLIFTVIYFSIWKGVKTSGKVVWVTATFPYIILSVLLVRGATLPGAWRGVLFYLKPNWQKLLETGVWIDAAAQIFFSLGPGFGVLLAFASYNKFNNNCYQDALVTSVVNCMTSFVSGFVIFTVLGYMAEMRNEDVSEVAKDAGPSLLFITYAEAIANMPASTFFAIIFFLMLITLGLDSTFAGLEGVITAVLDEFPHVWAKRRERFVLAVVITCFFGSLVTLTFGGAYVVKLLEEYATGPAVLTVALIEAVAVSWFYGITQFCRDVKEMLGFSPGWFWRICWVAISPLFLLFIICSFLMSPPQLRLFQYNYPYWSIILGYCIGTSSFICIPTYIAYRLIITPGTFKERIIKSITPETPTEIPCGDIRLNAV
Protocol Details: Inhibition of 5HTT
// pKi: -log10(molar conc.)

Query string: Name the recorded pKi of the molecule listed here: CC(=O)c1cccc(NC(=O)NCCC[C@H]2C[C@H](Cc3ccc(F)cc3)CCN2C)c1
Result string: 6.24

Query string: Find the measured pKi of CC(=O)CN1CC[C@@H](Cc2ccc(F)cc2)C[C@@H]1CCCNC(=O)Nc1cc(C(C)=O)cc(C(C)=O)c1 and report it.
Result string: 7.96

Query string: Determine its reported pKi: C=CCN1CC[C@@H](Cc2ccc(F)cc2)C[C@@H]1CCCNC(=O)Nc1cc(C(C)=O)cc(C(C)=O)c1
Result string: 7.16

Query string: Please supply the value of reported pKi for the item CC(=O)c1cc(NC(=O)NCCC[C@H]2C[C@H](Cc3ccc(F)cc3)CCN2CC(F)F)cc(C(C)=O)c1
Result string: 6.48

Query string: Please report the measured pKi for CCCN1CC[C@@H](Cc2ccc(F)cc2)C[C@@H]1CCCNC(=O)Nc1cc(C(C)=O)cc(C(C)=O)c1
Result string: 6.78

###

Each entry below carries its reported IC50.
Assay System: C-C chemokine receptor type 3 (Homo sapiens)
Sequence (P51677 whole entry): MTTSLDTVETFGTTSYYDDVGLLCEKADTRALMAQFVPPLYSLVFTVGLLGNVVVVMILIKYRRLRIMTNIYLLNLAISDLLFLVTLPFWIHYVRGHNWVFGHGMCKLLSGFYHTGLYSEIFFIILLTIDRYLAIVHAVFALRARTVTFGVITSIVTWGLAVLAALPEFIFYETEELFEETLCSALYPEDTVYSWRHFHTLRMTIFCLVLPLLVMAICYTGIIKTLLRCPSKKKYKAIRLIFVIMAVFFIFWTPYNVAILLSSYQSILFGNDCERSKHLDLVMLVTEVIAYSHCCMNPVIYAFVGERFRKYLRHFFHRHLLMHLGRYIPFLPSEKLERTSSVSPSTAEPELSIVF
Protocol Details: Binding affinity to CCR3

Query string: Fill in IC50 for record CC(=O)c1cc(NC(=O)NCCC[C@H]2C[C@H](Cc3ccc(F)cc3)CCN2CCCO)cc(C(C)=O)c1
Result string: 1.3 nM (antagonist)

Query string: State its IC50: CC(=O)CN1CC[C@@H](Cc2ccc(F)cc2)C[C@@H]1CCCNC(=O)Nc1cc(C(C)=O)cc(C(C)=O)c1
Result string: 0.9 nM (antagonist)

Query string: Find the measured IC50 of CCCN1CC[C@@H](Cc2ccc(F)cc2)C[C@@H]1CCCNC(=O)Nc1cc(C(C)=O)cc(C(C)=O)c1 and report it.
Result string: 0.7 nM (antagonist)

Query string: Assign IC50 to the following record: CC(=O)c1cc(NC(=O)NCCC[C@H]2C[C@H](Cc3ccc(F)cc3)CCN2CC(N)=O)cc(C(C)=O)c1
Result string: 3.6 nM (antagonist)

Query string: Using known records, supply IC50 for N#Cc1cccc(NC(=O)NCCCC[C@H]2C[C@H](Cc3ccccc3)CCN2)c1 (racemic)
Result string: 142 nM (antagonist)

###

Assay System: Sodium-dependent dopamine transporter (Homo sapiens)
Sequence (Q01959 whole entry): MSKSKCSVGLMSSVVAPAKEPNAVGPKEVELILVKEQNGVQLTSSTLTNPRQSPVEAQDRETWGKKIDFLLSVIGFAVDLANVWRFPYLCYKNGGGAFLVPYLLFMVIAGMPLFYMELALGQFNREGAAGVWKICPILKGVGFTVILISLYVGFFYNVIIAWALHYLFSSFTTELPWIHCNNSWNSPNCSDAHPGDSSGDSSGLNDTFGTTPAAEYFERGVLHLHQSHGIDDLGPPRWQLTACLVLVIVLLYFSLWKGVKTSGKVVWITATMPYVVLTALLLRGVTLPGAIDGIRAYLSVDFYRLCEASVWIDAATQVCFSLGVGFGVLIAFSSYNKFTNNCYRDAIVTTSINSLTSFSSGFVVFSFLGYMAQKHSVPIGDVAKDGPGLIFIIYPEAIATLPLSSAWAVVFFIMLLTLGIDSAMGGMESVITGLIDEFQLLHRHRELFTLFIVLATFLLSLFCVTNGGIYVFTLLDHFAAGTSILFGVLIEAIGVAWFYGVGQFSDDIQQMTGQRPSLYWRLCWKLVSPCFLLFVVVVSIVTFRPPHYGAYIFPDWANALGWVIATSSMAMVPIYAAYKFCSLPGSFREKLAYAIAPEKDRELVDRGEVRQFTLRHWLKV
Readout Name: Ki
I'd appreciate it if you wrote the number followed by its unit.

Please review the entries below; each comes with its answer.
>>> df
                                   compound  result
0  CC(=O)CN1CC[C@@H](Cc2ccc(F)cc2)C[C@@H]1CCCNC(=O)Nc1cc(C(C)=O)cc(C(C)=O)c1  754 nM
1  N#Cc1cccc(NC(=O)NCCC[C@H]2C[C@H](Cc3ccccc3)CCN2)c1 (stereo in doubt; 4)   34 nM
2  CC(=O)c1cc(NC(=O)NCCC[C@H]2C[C@H](Cc3ccc(F)cc3)CCN2)cc(C(C)=O)c1  119 nM
3  CC(=O)c1cc(NC(=O)NCCC[C@H]2C[C@H](Cc3ccc(F)cc3)CCN2C(=N)N)cc(C(C)=O)c1   31 nM
4  CC(=O)c1cc(NC(=O)NCCC[C@H]2C[C@H](Cc3ccc(F)cc3)CCN2CC(F)F)cc(C(C)=O)c1  931 nM
5  CC(=O)c1cccc(NC(=O)NCCC[C@H]2C[C@H](Cc3ccc(F)cc3)CCN2CC2CC2)c1  251 nM

Query string: Output Ki of CC(=O)c1cccc(NC(=O)NCCC[C@H]2C[C@H](Cc3ccc(F)cc3)CCN2C)c1
Result string: 96 nM

Query string: State, in one line, measured Ki of C#CCN1CC[C@@H](Cc2ccc(F)cc2)C[C@@H]1CCCNC(=O)Nc1cc(C(C)=O)cc(C(C)=O)c1
Result string: 621 nM

###

Assay System: Sodium-dependent serotonin transporter (Homo sapiens)
pKi: −log10 of the molar value.
Binary classification by pKi, with 7 as an inclusive lower bound for Criterion met; all other cases are Criterion not met.

                                   molecule  assigned_label
0  CC(=O)c1cc(NC(=O)NCCC[C@H]2C[C@H](Cc3ccc(F)cc3)CCN2)cc(C(C)=O)c1   Criterion met
1  CC(=O)c1cccc(NC(=O)NCCC[C@H]2C[C@H](Cc3ccc(F)cc3)CCN2)c1   Criterion met

Query string: In plain terms: is recorded pKi at least 7 for CC(=O)c1cc(NC(=O)NCCC[C@H]2C[C@H](Cc3ccc(F)cc3)CCN2C(C)=O)cc(C(C)=O)c1 ?
Result string: Criterion not met

Query string: Check this molecule for pKi at or above 7: CC(=O)c1cc(NC(=O)NCCC[C@H]2C[C@H](Cc3ccc(F)cc3)CCN2CCO)cc(C(C)=O)c1
Result string: Criterion met

Query string: Does the reported pKi for CC(=O)c1cccc(NC(=O)NCCC[C@H]2C[C@H](Cc3ccc(F)cc3)CCN2CCO)c1 fall at or above the 7 mark?
Result string: Criterion met

###

Protocol Details: Cmax in mice after 10 mg/kg oral dose
Assay type: ADME, organism-based
Set-up: dose 10 mg/kg, route oral
Condition Set: mouse, in vivo
Readout Name: Cmax (nM)
Number only, in nM; omit the unit.

Query string: Check the records and state Cmax for CCCN1CC[C@@H](Cc2ccc(F)cc2)C[C@@H]1CCCNC(=O)Nc1cccc(C(C)=O)c1
Result string: 274

###

The following molecules are shown together with reported IC50 values.
Assay System: C-C chemokine receptor type 3 (Homo sapiens)
Protocol Details: Binding affinity to CCR3

In [3]: df
Out[3]:
                                   molecule               result
0  CC(=O)c1cccc(NC(=O)NCCC[C@H]2C[C@H](Cc3ccccc3)CCN2)c1 (racemic)    6 nM (antagonist)
1  CC(=O)c1cc(NC(=O)NCCC[C@H]2C[C@H](Cc3ccc(F)cc3)CCN2)cc(C(C)=O)c1  0.5 nM (antagonist)
2  N#Cc1cccc(NC(=O)NCCC[C@H]2C[C@H](Cc3ccccc3)CCN2)c1 (racemic)   22 nM (antagonist)

# context switch: different molecule, same IC50
Query string: // fetch IC50 given entry CC(=O)c1cc(NC(=O)NCCC[C@H]2C[C@H](Cc3ccc(F)cc3)CCN2C(=N)N)cc(C(C)=O)c1
Result string: 4.3 nM (antagonist)

###

Protocol Details: Cmax in cynomolgus monkeys after 5 mg/kg oral dose
Assay type: ADME, organism-based, Macaca fascicularis
Parameters: dose 5 mg/kg, route oral
Condition Set: cynomolgus monkey, in vivo
Readout Name: Cmax

Query string: For CCCN1CC[C@@H](Cc2ccc(F)cc2)C[C@@H]1CCCNC(=O)Nc1cccc(C(C)=O)c1 , write its Cmax.
Result string: 989 nM

###

This section lists Ki readings for Sodium-dependent dopamine transporter (Homo sapiens, UniProt Q01959).
Record the value in nM, omitting the unit from your answer.

>>> df
                  compound_structure_string  value_units  quantitative_result
0  CC(=O)c1cc(NC(=O)NCCC[C@H]2C[C@H](Cc3ccc(F)cc3)CCN2CCO)cc(C(C)=O)c1           nM                  451
1  CC(=O)c1cc(NC(=O)NCCC[C@H]2C[C@H](Cc3ccc(F)cc3)CCN2CC(N)=O)cc(C(C)=O)c1           nM                 2660
2  CC(=O)c1cc(NC(=O)NCCC[C@H]2C[C@H](Cc3ccc(F)cc3)CCN2C(C)=O)cc(C(C)=O)c1           nM                 1220
3  CC(=O)c1cccc(NC(=O)NCCC[C@H]2C[C@H](Cc3ccc(F)cc3)CCN2)c1           nM                  219
4  C=CCN1CC[C@@H](Cc2ccc(F)cc2)C[C@@H]1CCCNC(=O)Nc1cc(C(C)=O)cc(C(C)=O)c1           nM                  297

Query string: Give Ki for the following compound: CCCN1CC[C@@H](Cc2ccc(F)cc2)C[C@@H]1CCCNC(=O)Nc1cccc(C(C)=O)c1
Result string: 756
